# System Under Test: T1, HsLARP6 La module (70-300) (Homo sapiens, UniProt Q9BRS8 70-300)
# T1 sequence: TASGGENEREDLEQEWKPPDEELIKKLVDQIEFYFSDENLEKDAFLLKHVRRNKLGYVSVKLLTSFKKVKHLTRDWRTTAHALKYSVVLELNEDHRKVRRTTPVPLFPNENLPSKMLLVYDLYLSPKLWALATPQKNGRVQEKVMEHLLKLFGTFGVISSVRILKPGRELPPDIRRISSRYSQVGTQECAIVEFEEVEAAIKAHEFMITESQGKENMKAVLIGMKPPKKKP
# Experiment Notes: ITC; ITC: 20 mM Tris pH 7.25, 100 mM KCl, 5 mM MgCl2, 1 mM DTT, 298 K; protein titrated into RNA
# Details: protein: recombinant; tags: N-terminal His6, TEV-cleaved for initial ITC; stem-loop with internal bulge
Listed below: Kd values for each entry.
Reported Metric: Kd (nM)

                                     binder  reported_metric  reading
0  CAAAGAGUCUACAUGGGUCAUGUUCAGCUUUG (structured_RNA) [32 nt RNA]               Kd      125
1  CCACAAAGAGUCUACAUGUCUAGGGUCUAGACAUGUUCAGCUUUGUGG (structured_RNA) [48 nt RNA (collagen alpha1(I) 5' UTR SL)]               Kd       48
